System: Hut78 T lymphocytic leukemia cells
measurement.description: In vitro anti-proliferative effect, CCK-8 method, Hut78
Format: cell-based
measurement.conditions: Homo sapiens, HuT78
property.name: pIC50
Give bare numbers, as −log10 of the molar value.

Consider the reported pIC50 for these compounds:
Nc1ccc(F)cc1NC(=O)c1ccc(Nc2ncnc3c(F)cccc23)cc1 [Compound V-14]
7.25
Nc1ccccc1NC(=O)c1ccc(CNc2ncnc3ccccc23)cc1 [Compound V-27]
6.45

Recorded pIC50 (compound COc1cccc2c(Nc3ccc(C(=O)Nc4ccccc4N)cc3)ncnc12 [Compound V-9] ): 6.64

###

System: A549 human lung cancer cells
measurement.description: In vitro anti-proliferative effect, CCK-8 method, A549
Assay type: cell-based
measurement.conditions: Homo sapiens, A549; 10 μM
property.name: inhibition at 10 µM (%)
One number for each entry, in %.

COCCOc1cc2ncnc(Nc3ccc(C(=O)Nc4ccncc4N)cc3)c2cc1OCCOC [Compound V-16]
48.7
Nc1ccc(F)cc1NC(=O)c1ccc(Nc2ncnc3c(F)cccc23)cc1 [Compound V-14]
-17.6
Nc1ccccc1NC(=O)c1ccc(Nc2ncnc3ccc([N+](=O)[O-])cc23)cc1 [Compound V-11]
15.3
COC(=O)Cc1ccc2ncnc(Nc3ccc(C(=O)Nc4ccccc4N)cc3)c2c1 [Compound V-22]
21.8
Nc1ccccc1NC(=O)c1ccc(CNc2ncnc3c(F)cccc23)cc1 [Compound V-43]
41.2

Lab note: each molecule below needs its inhibition at 10 µM filled in.
1. COc1cc2ncnc(Nc3ccc(C(=O)Nc4cc(-c5ccccc5)ccc4N)cc3)c2cc1OC [Compound V-24]
2. COc1cccc2c(Nc3ccc(C(=O)Nc4ccccc4N)cc3)ncnc12 [Compound V-9]
3. Nc1ccc(F)cc1NC(=O)c1ccc(Nc2ncnc3ccccc23)cc1 [Compound V-3]

1: 7.3; 2: 24.6; 3: -7.8
